B1: glmS ribozyme (parent)
chain: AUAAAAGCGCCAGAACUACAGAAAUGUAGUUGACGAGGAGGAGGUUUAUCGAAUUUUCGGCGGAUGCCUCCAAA

- Variants of: B1
- assay details: self-cleavage kobs at 640 uM GlcN6P; higher = faster cleavage; RNA array
- details: with glucosamine-6-phosphate
This sample holds only a part of the variants without activity.
# maps each entry to its self-cleavage kobs at 640 uM GlcN6P
Field: numeric (s⁻¹). Do not append units.

AUAAAAGCGCCAGAACUACAGAAAUGUAGUUGACGAGGAGGAGGUUUAUUGAAUUUUCGGCGGGUGCCUCCAAA: 2.41e-05
AUAAAAGCGCCAGAGCUACAGAAAUGUAGUUGACGAGGACGAGGUUUAUCGAAUUUUCGGCGGAUGCCUCCAAA: 0.00122
AUAAAAGCGCCAGAAUUACAGAAAUGUAGUUGACGAAGAGGAGGUUUAUCGAAUUUUCGGCGGAUGCCUCCAAA: 0.000713
AUAAACGCGCCAGAACUACAGAAAUGUACUUGACGAGGAGGAGGUUUAUCGAAUUUUGGGCGGAUGCCUCAAAA: 0.000108

*Q* Look up self-cleavage kobs at 640 uM GlcN6P for this variant: AUAAAAGCGCCAGAACUACAGAAAUGUAGUUGACGAGGAGAAGGUUUAUCGAAUUUUCGGCGGAUUCCUACAAA
*A* 9.26e-05

*Q* Look up self-cleavage kobs at 640 uM GlcN6P for this variant: AUAAAAGCGCCAGAAUUACAGAAAUGUAUUAGACGAGGAGGAGGUUUAUCGAAUUUUCGGCGGAUGCCUCCAAA
*A* 0.00108
